Parameter: melting point. Scope: all listed entries.

Worked examples, 4 molecules total:
CNC(=S)NNC(=O)c1ccc(N=C2C(=O)Nc3ccccc32)cc1 : 249 to 251 °C
O=C1Nc2ccccc2C1=Nc1ccc(C(=O)NN=Cc2cccc([N+](=O)[O-])c2)cc1 [Compound 10c] : 200 to 201 °C
CCOC(=O)CC(C)=NNC(=O)c1ccc(N=C2C(=O)Nc3ccccc32)cc1 [Compound 14a] : 206 to 208 °C
O=C1Nc2ccccc2C1=Nc1ccc(C(=O)NN2C(=O)c3ccccc3C2=O)cc1 [Compound 12a] : 187 to 189 °C

Continue with the next molecule.
[in] Recorded melting point for Cc1ccc(C=NNC(=O)c2ccc(N=C3C(=O)Nc4ccccc43)cc2)cc1 [Compound 10d] , please?
[out] 234 to 236 °C
